Molecular target: T1, cTnI quality control product recombinant protein (human, UniProt P19429 1-210, limits assumed)
T1 construct: the assay paragraphs only say cTnI; also called cardiac troponin I; cTnI antigen
T1 sequence (P19429 whole entry): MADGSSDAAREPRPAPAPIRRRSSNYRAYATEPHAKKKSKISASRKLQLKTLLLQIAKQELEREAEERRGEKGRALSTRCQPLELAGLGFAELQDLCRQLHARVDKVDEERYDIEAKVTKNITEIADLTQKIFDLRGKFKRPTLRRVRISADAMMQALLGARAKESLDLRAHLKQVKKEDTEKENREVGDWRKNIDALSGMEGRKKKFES
Experiment: AMC biosensor, antibody on sensor
Measured kon, listed per entry.
Please give a number only; it is taken to be in M⁻¹ s⁻¹.

BINDER	VAL
Mutation 1-36 (antibody, V domains shown) VH: QVQLQQSGTELAKPGASVKFSCKASGYTFSTYWMYWIKQRPGQGLEWIGYINPSSGHTDYNQRFKDKATLTADKSSSTAYMQLNSLTSEDSAVYYCARRYWGPFGMDYWGQGTSVTVSS VL: EIFLTQSPAIMSASPGEKVTMTCSASSTVSYVHWYQQKSGTSPKRWLYDTSKIASGIPVRFSGSGSGTSYSLTISSMEAEDAATYYCQQWSTNPYTFGGGTKLEIKR	17300
Mutation 1-7 (antibody, V domains shown) VH: QVQLQQSGTELAKPGASVKFSCKASGYTFTTYWMYWIKQRPGQGLEWIGYLNPSTGHTDYNQKFKDKATLTADKSSSTAYMQLNSLTSEDSAVYYCARRYYGPFGMDYWGQGTSVTVSS VL: EIFLTQSPAIMSASPGEKVTMTCSASTSVSYVHWYQQKSGTSPKRWLYDTSKLASGIPVRFSGSGSGTSYSLTISSMEAEDAATYYCQQWSTNPYTFGGGTKLEIKR	13900
Mutation 1-54 (antibody, V domains shown) VH: QVQLQQSGTELAKPGASVKFSCKASGYTFSSYWMYWIKQRPGQGLEWIGYLNPSSGHTDYNQKFKDKATLTADKSSSTAYMQLNSLTSEDSAVYYCARRYFGPFGMDYWGQGTSVTVSS VL: EIFLTQSPAIMSASPGEKVTMTCSASTTVSYVHWYQQKSGTSPKRWLYDTSKIASGIPVRFSGSGSGTSYSLTISSMEAEDAATYYCQQWSTQPYTFGGGTKLEIKR	44900
Mutation 1 (antibody, V domains shown, other CDR sites as WT) VH: QVQLQQSGTELAKPGASVKFSCKASGYTFSTYWMYWIKQRPGQGLEWIGYLNPSSGHTDYNQRFKDKATLTADKSSSTAYMQLNSLTSEDSAVYYCARKYFGPFGMDYWGQGTSVTVSS VL: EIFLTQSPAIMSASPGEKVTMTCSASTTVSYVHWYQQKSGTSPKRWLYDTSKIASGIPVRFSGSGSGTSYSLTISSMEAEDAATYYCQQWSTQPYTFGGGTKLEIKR	26400

Then there is this binder:
GET /values?readout=kon&item= Mutation 1-11 (antibody, V domains shown) VH: QVQLQQSGTELAKPGASVKFSCKASGYTFTSYWMYWIKQRPGQGLEWIGYINPSSGHTDYNQKFKDKATLTADKSSSTAYMQLNSLTSEDSAVYYCARKYWGPFGMDYWGQGTSVTVSS VL: EIFLTQSPAIMSASPGEKVTMTCSASTSVSYVHWYQQKSGTSPKRWIYDTSKLASGIPVRFSGSGSGTSYSLTISSMEAEDAATYYCQQWSTQPYTFGGGTKLEIKR
20300
